Where do the numbers come from? From ChEMBL document CHEMBL4673308.

experimental.details: Selectivity index, ratio of IC50 for human PC-3 cells under normoxic condition to IC50 human PC-3 cells under hypoxia condition incubated for 2 hrs followed by washed with fresh media incubated for 3 days by alamar blue assay
Type: functional
Parameter Ratio IC50: see the listing below.

entry.smiles: O=C(O)CCNC(=O)c1cc([N+](=O)[O-])cc([N+](=O)[O-])c1N(CCBr)CCOS(=O)(=O)C(F)(F)F
Ratio IC50: 3.9
//
entry.smiles: CS(=O)(=O)OCCN(CCBr)c1c(C(=O)NCCC(=O)O)cc([N+](=O)[O-])cc1[N+](=O)[O-]
Ratio IC50: 10
//
entry.smiles: O=C(O)CCNC(=O)c1cc([N+](=O)[O-])cc([N+](=O)[O-])c1N(CCBr)CCBr
Ratio IC50: 6.5
//
entry.smiles: Cc1ccc(S(=O)(=O)OCCN(CCBr)c2c(C(=O)NCCO)cc([N+](=O)[O-])cc2[N+](=O)[O-])cc1
Ratio IC50: 3.9
//
entry.smiles: CS(=O)(=O)OCCN(CCBr)c1c(C(=O)NCCO)cc([N+](=O)[O-])cc1[N+](=O)[O-]
Ratio IC50: 6.7
//
entry.smiles: O=C(NCCO)c1cc([N+](=O)[O-])cc([N+](=O)[O-])c1N(CCBr)CCOS(=O)(=O)C(F)(F)F
Ratio IC50: 5.8
//
entry.smiles: O=C(NCCO)c1cc([N+](=O)[O-])cc([N+](=O)[O-])c1N(CCBr)CCBr
Ratio IC50: 7.4
//
entry.smiles: Cc1ccc(S(=O)(=O)OCCN(CCBr)c2c(C(=O)NCCC(=O)O)cc([N+](=O)[O-])cc2[N+](=O)[O-])cc1
Ratio IC50: 11
